Reference source for all entries: ChEMBL document CHEMBL1201862

Tested on: NCI/ADR-RES
protocol-details: NCI tumour cell line growth inhibition, 48 h
The source made the active and inactive calls. Cut-off read from the data, not from the text of the source: active = GI50 up to about 1.1 µM and inactive = higher.
Pick one: t for active, f for inactive

compound	assigned-category
CC(C)CN1CN(c2ccccc2)C2(CCN(CC(C)(c3ccc(F)cc3)C3OCCO3)CC2)C1=O (centres undefined)	f
CC(=O)NC1C(OCc2ccccc2)OC(CO)C(O)C1OCC(=O)N[C@@H](C)C(=O)N[C@H](CCC(=O)NCCCCNc1c2ccccc2nc2cccc([N+](=O)[O-])c12)C(N)=O (some centres undefined)	f
COc1ccc2c(c1)-c1nc(=S)n(CCN(C)C)c3ccc([N+](=O)[O-])c(c13)N2	t
Cc1ccc(S(=O)(=O)c2c(O)c3ccccc3n(C)c2=O)cc1	f
CCCCOC(=O)NC(c1ccccc1)C(O)C(=O)OC1C[C@@]2(O)C(OC(=O)c3ccccc3)C3[C@](C)(C(=O)[C@H](OC(C)=O)C(=C1C)C2(C)C)[C@@H](O)C[C@H]1OC[C@@]31OC(C)=O (some centres undefined)	f

Asked: Which outcome did this test record for the compound Oc1cccc2c(Cl)ccnc12 ?
Given back: f

---

Test system: RXF 393
protocol-details: NCI tumour cell line growth inhibition, 48 h
Calls of active or inactive are those of the source. Cut-off read from the data, not from the text of the source: active = GI50 up to about 1.1 µM and inactive = higher.
For each record, write down the corresponding GI50.

Some solved entries appear below for comparison.
molecule	assayed-system	GI50
COC1/C=C/OC2(C)Oc3c(C)c(O)c4c(c3C2=O)C(=O)C=C(NC(=O)/C(C)=C\C=C\C(C)C(OC=O)C(C)C(O)C(C)C(OC(C)=O)C1C)C4=O (stereo unspecified)	RXF 393	7.67 µM (inactive)
CSc1ncc2c(n1)-c1ccccc1OC2N1CCOCC1 (stereo unspecified)	RXF 393	53.8 µM (inactive)
COP(C)(=O)C(Cc1c[nH]c2ccccc12)NC(=O)OCc1ccccc1 (stereo unspecified)	RXF 393	> 100 µM (inactive)

Okay, here is my list. What is GI50 for each of these?
1. O=CNc1ccc2c(c1)C(=O)c1ccccc1-2
2. O=C(O)C1CCCCC1C(=O)Nn1cnnc1 (stereo unspecified)
3. Nn1c(S)nnc1NNC(=O)C(=O)Nc1cc(Cl)c(Cl)cc1Cl

Given back:
1: 65.2 µM (inactive); 2: > 100 µM (inactive); 3: > 100 µM (inactive)

---

Tested on: MDA-MB-231
protocol-details: NCI tumour cell line growth inhibition, 48 h
Calls of active or inactive are those of the source. Cut-off read from the data, not from the text of the source: active = GI50 up to about 1.1 µM and inactive = higher.
Pick one: 1.0 for active, 0.0 for inactive

Answered examples (3):
compound	assigned-category
CC(=O)Nc1ccc(COC(O)CN2CCCCC2)cc1[N+](=O)[O-] (stereo unspecified)	0.0
CCOC1NC(=O)Oc2ccccc21 (stereo unspecified)	0.0
CC(C)(C)OC(=O)NC(CSCc1ccc(C(=O)c2ccccc2)cc1)C(=O)O (stereo unspecified)	0.0

Asked: Which outcome did this test record for the compound O=S(=O)(O)c1c(/N=N/c2c(O)ccc3ccccc23)ccc2ccccc12 ?
Given back: 0.0

---

Tested on: NCI/ADR-RES
protocol-details: NCI tumour cell line growth inhibition, 48 h
Calls of active or inactive are those of the source. No stated cut-off is given here; in the data, active = GI50 up to about 1.1 µM and inactive = higher.
Pick one: yes (1) for active, no (0) for inactive

compound	assigned-category
CCCNC1=Nc2ccccc2N(Cc2ccccc2)CC1	no (0)

Asked: Which outcome did this test record for the compound C/C(=C/C(=O)N(C)c1ccccc1Cl)O[Si](C(C)C)(C(C)C)C(C)C ?
Given back: no (0)

Asked: Which outcome did this test record for the compound CN(C)CCNC1=C(Cl)C(=O)c2c(O)ccc(O)c2C1=O ?
Given back: no (0)
